# Test system: LAPC4
# TEST_DETAILS: Androgenic activity in human LAPC4 cells expressing androgen receptor assessed as effect on cell proliferation at 0.1 uM supplemented with fresh medium containing compounds every 3 days for 7 days by MTS assay (reference value: 100%)
# Format: ADME, cell-based
# SETTINGS: lapc4, 168 h

COMPOUND: CC1CN(S(=O)(=O)c2ccccc2C(F)(F)F)C(C)CN1C[C@@]1(O)CC[C@@]2(C)[C@@H](CC[C@@H]3[C@@H]2CC[C@]2(C)[C@@H](O)[C@H](F)C[C@@H]32)C1 (stereo not given in full)
ASSAY_SYSTEM: LAPC4
UNIT_ABBREVIATION: %
Activity: 153.6
--
COMPOUND: CC1CN(S(=O)(=O)c2ccccc2C(F)(F)F)C(C)CN1C[C@@]1(O)CC[C@@]2(C)[C@@H](CC[C@@H]3[C@@H]2CC[C@]2(C)C(=O)[C@H](F)C[C@@H]32)C1 (stereo not given in full)
ASSAY_SYSTEM: LAPC4
UNIT_ABBREVIATION: %
Activity: 147.7
--
COMPOUND: C#C[C@]1(O)CC[C@H]2[C@@H]3CC[C@H]4C[C@@](O)(CN5CC(C)N(S(=O)(=O)c6ccccc6C(F)(F)F)CC5C)CC[C@]4(C)[C@H]3CC[C@@]21C (stereo not given in full)
ASSAY_SYSTEM: LAPC4
UNIT_ABBREVIATION: %
Activity: 130.9
--
COMPOUND: CC1CN(S(=O)(=O)c2ccccc2C(F)(F)F)C(C)CN1CC(O)c1ccc2c(c1)CC[C@@H]1[C@@H]2CC[C@]2(C)C(=O)CC[C@@H]12 (single isomer, unassigned; diastereomer A)
ASSAY_SYSTEM: LAPC4
UNIT_ABBREVIATION: %
Activity: 115
--
COMPOUND: CC(=O)[C@H]1CC[C@H]2[C@@H]3CC[C@H]4C[C@@](O)(CN5CC(C)N(S(=O)(=O)c6ccccc6C(F)(F)F)CC5C)CC[C@]4(C)[C@H]3CC[C@]12C (stereo not given in full)
ASSAY_SYSTEM: LAPC4
UNIT_ABBREVIATION: %
Activity: 45.9

---

# ASSAY_SYSTEM: 17-beta-hydroxysteroid dehydrogenase type 3 (Homo sapiens)
# TEST_DETAILS: Inhibition of 17beta-HSD3 (unknown origin) expressed in human LNCAP cells assessed as reduction in [14C]-testosterone formation from [14C]-4-androstene-3,17-dione at 0.1 uM measured after 1 hr relative to control
# Format: cell-based
ENDPOINT: inhibition (%)

MOLECULE: CC1CN(S(=O)(=O)c2ccccc2C(F)(F)F)C(C)CN1C[C@@]1(O)CC[C@@]2(C)[C@@H](CC[C@@H]3[C@@H]2CC[C@]2(C)[C@@H](O)[C@H](O)C[C@@H]32)C1 (some centres not stated)
ASSAY_SYSTEM: 17-beta-hydroxysteroid dehydrogenase type 3 (Homo sapiens)
ASSAY_RESULT: 20
//
MOLECULE: CC1CN(S(=O)(=O)c2ccccc2C(F)(F)F)C(C)CN1C[C@@]1(O)CC[C@@]2(C)[C@@H](CC[C@@H]3[C@@H]2CC[C@]2(C)C(=O)CC[C@@H]32)C1 (some centres not stated)
ASSAY_SYSTEM: 17-beta-hydroxysteroid dehydrogenase type 3 (Homo sapiens)
ASSAY_RESULT: 60
//
MOLECULE: CC1CN(S(=O)(=O)c2ccccc2C(F)(F)F)C(C)CN1CC(O)c1ccc2c(c1)CC[C@@H]1[C@@H]2CC[C@]2(C)C(=O)CC[C@@H]12 (single isomer, unassigned; diastereomer A)
ASSAY_SYSTEM: 17-beta-hydroxysteroid dehydrogenase type 3 (Homo sapiens)
ASSAY_RESULT: 50
//
MOLECULE: CC1CN(S(=O)(=O)c2ccccc2C(F)(F)F)C(C)CN1C[C@@]1(O)CC[C@@]2(C)[C@@H](CC[C@@H]3[C@@H]2CC[C@]2(C)C(=O)[C@H](O)C[C@@H]32)C1 (some centres not stated)
ASSAY_SYSTEM: 17-beta-hydroxysteroid dehydrogenase type 3 (Homo sapiens)
ASSAY_RESULT: 0
//
MOLECULE: CC1CN(S(=O)(=O)c2ccccc2C(F)(F)F)C(C)CN1CC(O)c1ccc2c(c1)CC[C@@H]1[C@@H]2CC[C@]2(C)C(=O)CC[C@@H]12 (single isomer, unassigned; diastereomer B)
ASSAY_SYSTEM: 17-beta-hydroxysteroid dehydrogenase type 3 (Homo sapiens)
ASSAY_RESULT: 84
//
MOLECULE: CC1CN(S(=O)(=O)c2ccccc2C(F)(F)F)C(C)CN1C[C@@]1(O)CC[C@H]2[C@@H](CC[C@@H]3[C@@H]2CC[C@]2(C)C(=O)CC[C@@H]32)C1 (some centres not stated)
ASSAY_SYSTEM: 17-beta-hydroxysteroid dehydrogenase type 3 (Homo sapiens)
ASSAY_RESULT: 20
//
MOLECULE: CC1CN(S(=O)(=O)c2ccccc2C(F)(F)F)C(C)CN1C[C@@]1(O)CC[C@@]2(C)[C@@H](CC[C@@H]3[C@@H]2CC[C@]2(C)C(=O)[C@H](F)C[C@@H]32)C1 (some centres not stated)
ASSAY_SYSTEM: 17-beta-hydroxysteroid dehydrogenase type 3 (Homo sapiens)
ASSAY_RESULT: 22

---

# System: LAPC4
# TEST_DETAILS: Androgenic activity in human LAPC4 cells expressing androgen receptor assessed as effect on cell proliferation at 0.1 uM supplemented with fresh medium containing compounds every 3 days for 7 days by MTS assay (reference value: 100%)
# Type: ADME, cell-based
# SETTINGS: lapc4, 168 h
Measured Activity values are reported for all entries that follow.

COMPOUND: CC1CN(S(=O)(=O)c2ccccc2C(F)(F)F)C(C)CN1C[C@@]1(O)CC[C@@]2(C)[C@@H](CC[C@@H]3[C@@H]2CC[C@@]2(C)[C@H]3CC[C@@]23CO3)C1 (stereo partly drawn)
Activity [%]: 92.6
--
COMPOUND: CC1CN(S(=O)(=O)c2ccccc2C(F)(F)F)C(C)CN1C[C@@]1(O)CC[C@@]2(C)[C@@H](CC[C@@H]3[C@@H]2CC[C@]2(C)[C@@H](O)CC[C@@H]32)C1 (stereo partly drawn)
Activity [%]: 116.4
--
COMPOUND: CC1CN(S(=O)(=O)c2ccccc2C(F)(F)F)C(C)CN1C[C@@]1(O)CC[C@@]2(C)[C@@H](CC[C@@H]3[C@@H]2CC[C@]2(C)C(=O)[C@H](O)C[C@@H]32)C1 (stereo partly drawn)
Activity [%]: 114

---

Measured inhibition values are reported for all entries that follow.
# ASSAY_SYSTEM: 17-beta-hydroxysteroid dehydrogenase type 3 (Homo sapiens) (UniProt P37058)
# Sequence (P37058 whole entry): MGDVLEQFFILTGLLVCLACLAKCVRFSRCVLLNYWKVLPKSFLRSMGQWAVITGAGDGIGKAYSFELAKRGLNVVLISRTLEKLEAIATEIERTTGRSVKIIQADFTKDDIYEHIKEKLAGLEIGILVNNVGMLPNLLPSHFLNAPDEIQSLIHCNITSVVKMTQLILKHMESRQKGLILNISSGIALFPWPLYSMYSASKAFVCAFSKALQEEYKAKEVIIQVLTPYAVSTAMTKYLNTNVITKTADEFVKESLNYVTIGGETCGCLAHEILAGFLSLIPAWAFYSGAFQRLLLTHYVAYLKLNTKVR
# TEST_DETAILS: Inhibition of 17beta-HSD3 (unknown origin) expressed in human LNCAP cells assessed as reduction in [14C]-testosterone formation from [14C]-4-androstene-3,17-dione at 1 uM measured after 1 hr relative to control
# Type: cell-based

COMPOUND: CC1CN(S(=O)(=O)c2ccccc2C(F)(F)F)C(C)CN1Cc1cc2c(cc1O)CC[C@@H]1[C@@H]2CC[C@]2(C)C(=O)CC[C@@H]12 (some centres not stated)
inhibition [%]: 84

COMPOUND: CC1CN(S(=O)(=O)c2ccccc2C(F)(F)F)C(C)CN1C[C@@]1(O)CC[C@@]2(C)[C@@H](CC[C@@H]3[C@@H]2CC[C@]2(C)/C(=N/O)CC[C@@H]32)C1 (some centres not stated)
inhibition [%]: 90

COMPOUND: CC1CN(S(=O)(=O)c2ccccc2C(F)(F)F)C(C)CN1C[C@@]1(O)CC[C@@]2(C)[C@@H](CC[C@@H]3[C@@H]2CC[C@]2(C)[C@@H](O)CC[C@@H]32)C1 (some centres not stated)
inhibition [%]: 94

COMPOUND: CC1CN(S(=O)(=O)c2ccccc2C(F)(F)F)C(C)CN1CCc1ccc2c(c1)CC[C@@H]1[C@@H]2CC[C@]2(C)C(=O)CC[C@@H]12 (some centres not stated)
inhibition [%]: 70

COMPOUND: CC1CN(S(=O)(=O)c2ccccc2C(F)(F)F)C(C)CN1CC(F)c1ccc2c(c1)CC[C@@H]1[C@@H]2CC[C@]2(C)C(=O)CC[C@@H]12 (mixture of isomers)
inhibition [%]: 90

COMPOUND: CC1CN(S(=O)(=O)c2ccccc2C(F)(F)F)C(C)CN1C(=O)c1ccc2c(c1)CC[C@@H]1[C@@H]2CC[C@]2(C)C(=O)CC[C@@H]12 (some centres not stated)
inhibition [%]: 90

COMPOUND: CC1CN(S(=O)(=O)c2ccccc2C(F)(F)F)C(C)CN1C[C@@]1(O)CC[C@@]2(C)[C@@H](CC[C@@H]3[C@@H]2CC[C@]2(C)C(=O)[C@H](F)C[C@@H]32)C1 (some centres not stated)
inhibition [%]: 90
